Target: recombinant human FLAP protein (Homo sapiens)
Sequence (P20292 whole entry): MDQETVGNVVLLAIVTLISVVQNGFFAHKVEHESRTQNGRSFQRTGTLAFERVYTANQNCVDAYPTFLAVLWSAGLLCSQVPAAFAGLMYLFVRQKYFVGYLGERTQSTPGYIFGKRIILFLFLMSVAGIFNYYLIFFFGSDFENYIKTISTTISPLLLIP
Assay: FLAP binding assay (Scintillation Proximity Assay, displacement of [125I]L-691,831)
Settings: recombinant human FLAP membranes, [125I]L-691,831 probe; read-out: FLAP SPA IC50
Provide the recorded pIC50 for the entries that follow.
Numbers only, as −log10 of the molar value.

In the examples that follow, each entry is paired with its recorded pIC50.
compound: COC(=O)[C@@H]1CN(c2cnc(-c3nc(C4(c5ccc(-c6cnc(N)nc6)cc5)CCC4)no3)cn2)CCN1 [Example 309]
pIC50: 8.24
//
compound: COc1cc(-c2nc(C3(c4ccc(-c5cnc(N)nc5)cc4)CCC3)no2)ccc1O [Example 98]
pIC50: 8.64
//
compound: Cc1cnc(-c2nc(C3(c4ccc(-c5cnc(N)nc5)cc4)CCC3)no2)cn1 [Example 22]
pIC50: 8.59
//
compound: Cn1cc(-c2nc(C3(c4ccc(-c5cnc(N)nc5)cc4)CCC3)no2)ncc1=O [Example 31]
pIC50: 8.52
//
compound: Nc1ncc(-c2ccc(C3(c4noc(N5CCC[C@@H]5CO)n4)CCC3)cc2)cn1 [Example 289]
pIC50: 7.51
//
compound: Nc1ncc(-c2ccc(C3(c4noc(-c5cncn5C5COC5)n4)CCC3)cc2)cn1 [Example 264]
pIC50: 8.08

Batch request: pIC50 for each of the following compounds.
1. CS(=O)(=O)N1CCN(c2cnc(-c3nc(C4(c5ccc(-c6cnc(N)nc6)cc5)CCC4)no3)cn2)CC1 [Example 202]
2. Nc1ncc(-c2ccc(C3(c4noc(-c5cnn(CC(=O)N6CCOCC6)c5)n4)CCC3)cc2)cn1 [Example 134]
3. Cn1cc(-c2nc(C3(c4ccc(-c5cnc(N)nc5)cc4)CC(F)(F)C3)no2)cn1 [Example 122]
4. CN(C)CCn1cc(-c2nc(C3(c4ccc(-c5cnc(N)nc5)cc4)CCC3)no2)cn1 [Example 240]
5. CC(C)(O)Cn1cncc1-c1nc(C2(c3ccc(-c4cnc(N)nc4)cc3)CCC2)no1 [Example 298]

Output:
[8.59, 8.24, 7.85, 8.44, 7.80]
